- assay-protocol: Microsomal stability, human liver microsomes (predicted hepatic clearance)
- condition-label: predicted from in vitro microsomal stability data
Is Predicted Hepatic Clearance (Pred. Cl.) at least 5 mL/min/kg? Then TRUE. If not, FALSE.

Task item: Would you say COCCNC(=O)C(Cn1c(Cc2ccc(-c3cccc(OCc4ccc(C#N)cc4F)n3)cc2F)nc2ccc(C(=O)O)cc21)OC (single isomer, unassigned) [Example 335] shows Predicted Hepatic Clearance (Pred. Cl.) at minimum 5 mL/min/kg?
Reply: FALSE

Task item: Evaluate CCn1cncc1Cn1c(Cc2ccc(-c3cccc(OCc4ccc(C#N)cc4F)n3)c(F)c2)nc2c(F)cc(C(=O)O)cc21 [Example 452] : Predicted Hepatic Clearance (Pred. Cl.) at minimum 5 mL/min/kg?
Reply: TRUE

Task item: Predicted Hepatic Clearance (Pred. Cl.) >= 5 mL/min/kg for O=C(O)c1ccc2nc(Cc3cc(F)c(-c4ccnc(OCc5ccc(Cl)cc5F)n4)cc3F)n(CC3(CF)CC3)c2c1 [Example 433] ?
Reply: FALSE

Task item: hey, is Predicted Hepatic Clearance (Pred. Cl.) for this one >= 5 mL/min/kg? COCCn1c(Cc2ccc(-c3ccc(F)c(OCc4ccc(Cl)cc4F)c3)cc2F)nc2ccc(C(=O)O)cc21 [Example 472]
Reply: FALSE

Task item: Assess whether reported Predicted Hepatic Clearance (Pred. Cl.) for CC1(Cn2c(Cc3cc(F)c(-c4cccc(OCc5ccc(C#N)cc5F)n4)cc3F)nc3ccc(C(=O)O)cc32)CCOCC1 [Example 839] sits at 5 mL/min/kg or higher.
Reply: TRUE

Task item: Check the entry COCCn1c(Cc2cc(F)c(-c3cccc(OCc4ccc(Cl)cc4)n3)cc2F)nc2ccc(C(=O)O)cc21 [Example 602] : does Predicted Hepatic Clearance (Pred. Cl.) equal or exceed 5 mL/min/kg?
Reply: FALSE

Task item: Has [2H]C([2H])(Oc1cccc(-c2cc(F)c(Cc3nc4ccc(C(=O)O)cc4n3CCOC)cc2F)n1)c1ccc(C#N)cc1F [Example 543] a recorded Predicted Hepatic Clearance (Pred. Cl.) greater than or equal to 5 mL/min/kg?
Reply: FALSE

Task item: Could you please find out whether CCn1c(Cn2c(Cc3ccc(-c4cccc(OCc5ccc(C#N)cc5F)n4)cc3F)nc3ccc(C(=O)O)cc32)cnc1C [Example 519] has Predicted Hepatic Clearance (Pred. Cl.) that meets 5 mL/min/kg or exceeds it?
Reply: FALSE

Task item: Is reported Predicted Hepatic Clearance (Pred. Cl.) greater than or equal to 5 mL/min/kg here: O=C(O)c1cc(F)c2nc(Cc3cc(F)c(-c4cccc(OCc5ccc(Cl)nc5)n4)cc3F)n(C[C@@H]3CCO3)c2c1 [Example 658]
Reply: FALSE

Task item: Does COCCn1c(Cc2ccc(-c3ccnc(OCc4ccc(C#N)cc4F)n3)c(F)c2)nc2c(F)cc(C(=O)O)cc21 [Example 558] have a reported Predicted Hepatic Clearance (Pred. Cl.) of at least 5 mL/min/kg?
Reply: FALSE

Task item: Assess whether reported Predicted Hepatic Clearance (Pred. Cl.) for COCCn1c(Cc2cc(F)c(-c3ccc(OC)c(OCc4ccc(C#N)cc4F)n3)cc2F)nc2ccc(C(=O)O)cc21 [Example 541] sits at 5 mL/min/kg or higher.
Reply: FALSE

Task item: API: above_or_equal(metric=Predicted Hepatic Clearance (Pred. Cl.), cutoff=5 mL/min/kg) for item N#Cc1ccc(COc2cccc(-c3cc(F)c(Cc4nc5ccc(C(=O)O)cc5n4Cc4ccns4)cc3F)n2)c(F)c1 [Example 579]
Reply: TRUE

Task item: Does the molecule CO[C@H]1COC[C@H]1n1c(Cc2cc(F)c(-c3cccc(OCc4ccc(C#N)cc4F)n3)cc2F)nc2ccc(C(=O)O)cc21 (single isomer, unassigned) [Example 890] have recorded Predicted Hepatic Clearance (Pred. Cl.) that is 5 mL/min/kg or more?
Reply: TRUE

Task item: Quick check: does COCCn1c(Cc2ccc(-c3cccc(OCc4cccc5c4OCCC5)n3)cc2F)nc2ccc(C(=O)O)cc21 [Example 241] have Predicted Hepatic Clearance (Pred. Cl.) greater than or equal to 5 mL/min/kg?
Reply: TRUE

Task item: Check the entry COCCn1c(Cc2ccc(-c3cccc(OCc4ccc(C#N)cc4F)n3)cc2OC(F)F)nc2ccc(C(=O)O)cc21 [Example 42] : does Predicted Hepatic Clearance (Pred. Cl.) equal or exceed 5 mL/min/kg?
Reply: FALSE

Task item: State whether the measured Predicted Hepatic Clearance (Pred. Cl.) reaches 5 mL/min/kg, counting equality as reaching it, for COCCn1c(Cc2ccc(-c3cccc(OCc4ccccc4)n3)cc2F)nc2ccc(C(=O)O)cc21 [Example 501]
Reply: TRUE

Task item: Hello, I need to know if COCCn1c(Cc2cc(F)c(-c3nc(OCc4ccc(C(F)F)cc4F)ccc3F)cc2F)nc2c(F)cc(C(=O)O)cc21 [Example 664] has measured Predicted Hepatic Clearance (Pred. Cl.) not below 5 mL/min/kg. Thanks!
Reply: FALSE

Task item: Tell me whether Predicted Hepatic Clearance (Pred. Cl.) is at least 5 mL/min/kg here: N#Cc1ccc(COc2cccc(-c3cc(F)c(Cc4nc5ccc(C(=O)O)cc5n4C[C@@H]4CCCO4)cc3F)n2)c(F)c1 [Example 840]
Reply: FALSE

Task item: Check this molecule for Predicted Hepatic Clearance (Pred. Cl.) at or above 5 mL/min/kg: COCCn1c(Cc2ccc(-c3cccc(OCc4ccc(C#N)cc4F)n3)c(C)c2)nc2ccc(C(=O)O)cc21 [Example 20]
Reply: FALSE

Task item: # check: Predicted Hepatic Clearance (Pred. Cl.) of COCCn1c(Cc2cc(F)c(-c3cccc(OCc4ccc(C(F)(F)F)nc4)n3)cc2F)nc2ccc(C(=O)O)cc21 [Example 861] is greater than or equal to 5 mL/min/kg
Reply: FALSE

Task item: Does the reported Predicted Hepatic Clearance (Pred. Cl.) for COC(Cn1c(Cc2ccc(-c3cccc(OCc4ccc(C#N)cc4F)n3)cc2F)nc2ccc(C(=O)O)cc21)C(=O)Nc1nccs1 (single isomer, unassigned) [Example 329] fall at or above the 5 mL/min/kg mark?
Reply: TRUE

Task item: Say whether COCCn1c(Cc2ccc(-c3cccc(OCc4cc(F)c(C#N)cc4F)n3)cc2F)nc2ccc(C(=O)O)cc21 [Example 262] shows Predicted Hepatic Clearance (Pred. Cl.) of 5 mL/min/kg or more.
Reply: FALSE

Task item: Does the reported Predicted Hepatic Clearance (Pred. Cl.) for COCCn1c(Cc2ccc(-c3cccnc3OCc3ccc(C#N)cc3F)cc2F)nc2ccc(C(=O)O)cc21 [Example 180] fall at or above the 5 mL/min/kg mark?
Reply: TRUE

Task item: Confirm if Predicted Hepatic Clearance (Pred. Cl.) reported for the molecule COc1cc(Cl)ccc1COc1nccc(-c2ccc(Cc3nc4ccc(C(=O)O)nc4n3CC3(CF)CC3)cc2F)n1 [Example 233] is 5 mL/min/kg or above.
Reply: TRUE
